Species on record: Homo sapiens
test-details: Binding affinity to biotin-labeled human wild type internal ribosome entry site A RNA G-quadruplex by SPR analysis
Activity calls are given as the source filed them. The rule behind the calls is not given here.
reported-property: Activity

As a guide, the following entries are already answered.
C[n+]1c2ccccc2c(NCC(=O)NCC(=O)NC(Cc2c[nH]cn2)C(=O)O)c2oc3ccccc3c21 (centres undefined) = Active
CN(C)CCNC(=O)COc1ccc2oc3c(NCCN(C)C)c4ccccc4[n+](C)c3c2c1 = Active
CN1CCC(COc2ccc3oc4c(NCC(=O)NCC(=O)NCC(=O)O)c5ccccc5nc4c3c2)CC1 = Active
COc1ccc2cc3[n+](cc2c1NCCc1ccccc1)CCc1cc2c(cc1-3)OCO2 = Active
CCN(CC)CCNc1c2ccccc2[n+](C)c2c1oc1ccc(OCCC[N+](C)(C)C)cc12 = Active

Incoming: Field request: Activity | item: CN1CCC(COc2ccc3oc4c(NCC(=O)NCC(=O)NC(CCCNC(=N)N)C(=O)O)c5ccccc5nc4c3c2)CC1 (centres undefined)
Outgoing: Active

Incoming: Ok, now C[n+]1c2ccccc2c(NCCCN2CCOCC2)c2oc3ccc(OCC4CC[N+](C)(C)CC4)cc3c21
Outgoing: Active

---

test-details: Binding affinity to biotin-labeled DNA hairpin (unknown origin) by SPR analysis
Active and inactive are the calls of the source. How the calls were made is not given here.
reported-property: Activity

// solved cases for Activity follow
CCN(CC)CCNc1c2ccccc2[n+](C)c2c1oc1ccc(OCC3CC[N+](C)(C)CC3)cc12 = Active
C[n+]1c2ccccc2c(NCCN2CCOCC2)c2oc3ccc(OCC[N+](C)(C)C)cc3c21 = Active
CCN(CC)CCNc1c2ccccc2[n+](C)c2c1oc1ccc(OCCC[N+](C)(C)C)cc12 = Active
CN(C)CCCNc1c2ccccc2[n+](C)c2c1oc1ccc(OCC[N+](C)(C)C)cc12 = Active

Query compound follows.
Incoming: State the recorded Activity for this entry: CN(C)CCNc1c2ccccc2[n+](C)c2c1oc1ccc(OCC[N+]3(C)CCCCC3)cc12
Outgoing: Active

---

test-details: Binding affinity to biotin-labeled DNA hairpin (unknown origin) by SPR analysis
reported-property: Kd (µM)
The answer is to be given in µM; state only the numeric part.

Incoming: Bench note: what Kd did CCN(CC)CCOc1ccc(Nc2nc(-c3ccccc3NC(=O)CCN3CCN(C)CC3)nc3ccccc23)cc1 show?
Outgoing: 21.2

---

System: MCF7
test-details: Cytotoxicity against human MCF7 cells assessed as reduction in cell viability
Assay type: cell-based
reported-property: IC50 (µM)
Please respond with the number in µM and leave the unit unwritten.

Incoming: Observed IC50 on MCF7 for CCN(CC)CCOc1ccc(Nc2nc(-c3ccccc3NC(=O)CCN3CCN(C)CC3)nc3ccccc23)cc1 , please.
Outgoing: 12.5

---

test-details: Binding affinity to biotin-labeled human wild type internal ribosome entry site A RNA G-quadruplex by SPR analysis
reported-property: Kd (nM)
Kindly answer with a numeric value in nM, unit omitted.

Incoming: Would you kindly share the measured Kd for CCN(CC)CCOc1ccc(Nc2nc(-c3ccccc3NC(=O)CCN3CCN(C)CC3)nc3ccccc23)cc1 ?
Outgoing: 928
